# Assay Target: stearoyl-CoA desaturase (SCD) (Mus musculus, UniProt P13516)
# Construct: % Remaining SCD activity compared to DMSO control in mouse liver microsome assay; from tissue; host or cells: mouse liver microsomes
# Sequence (P13516 whole entry): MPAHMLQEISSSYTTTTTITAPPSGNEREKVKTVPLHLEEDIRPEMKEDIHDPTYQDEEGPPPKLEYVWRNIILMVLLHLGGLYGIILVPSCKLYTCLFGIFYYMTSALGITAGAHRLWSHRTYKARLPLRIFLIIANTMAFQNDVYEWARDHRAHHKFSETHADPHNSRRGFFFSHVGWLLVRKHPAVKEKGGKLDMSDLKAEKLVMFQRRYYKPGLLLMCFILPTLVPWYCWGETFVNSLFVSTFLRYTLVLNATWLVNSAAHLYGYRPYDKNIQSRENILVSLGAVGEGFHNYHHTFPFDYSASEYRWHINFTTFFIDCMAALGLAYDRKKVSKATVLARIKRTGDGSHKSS
# Assay Details: SCD mouse liver microsome assay (tritiated stearoyl-CoA desaturation)
# Type: biochemical
# Test Context: stated in summary text; read-out: IC50 value

- Cpd Smiles: "CC(C)CCNC(=O)c1ccc(N2CCN(C(=O)c3ccccc3C(F)(F)F)CC2)nc1"
  Uom: "nM"
  IC50: 32

###

# % Activity 1 μM per entry
# Assay Target: stearoyl-CoA desaturase (SCD) (Mus musculus, UniProt P13516)
# Construct: % Remaining SCD activity compared to DMSO control in mouse liver microsome assay; from tissue; host or cells: mouse liver microsomes
# Assay Details: SCD mouse liver microsome assay (tritiated stearoyl-CoA desaturation)
# Assay type: biochemical
# Test Context: Table 5; % remaining SCD activity at 1 μM, mouse microsome assay

- Compound: "CCCCCNC(=O)c1ccc(N2CCN(C(=O)c3ccccc3Br)CC2)nc1 [Compound X13]"
  Uom: "%"
  % Activity 1 μM: 7.8
- Compound: "CCCCCNC(=O)c1ccc(N2CCN(C(=O)c3ccccc3C(F)(F)F)CC2)nc1 [Compound X11]"
  Uom: "%"
  % Activity 1 μM: 3.7
- Compound: "O=C(NCCc1ccccc1)c1ccc(N2CCN(C(=O)c3ccccc3Br)CC2)nc1 [Compound X04]"
  Uom: "%"
  % Activity 1 μM: 5.5
- Compound: "O=C(NCCc1cccc(Cl)c1)c1ccc(N2CCN(C(=O)c3ccccc3C(F)(F)F)CC2)nc1 [Compound X01]"
  Uom: "%"
  % Activity 1 μM: 9.1
- Compound: "CCCCNC(=O)c1ccc(N2CCN(C(=O)c3ccccc3C(F)(F)F)CC2)nc1 [Compound X09]"
  Uom: "%"
  % Activity 1 μM: 15
- Compound: "O=C(NCCCc1ccccc1)c1ccc(N2CCN(C(=O)c3ccccc3C(F)(F)F)CC2)nc1 [Compound X03]"
  Uom: "%"
  % Activity 1 μM: 2.2
- Compound: "O=C(NCCCc1ccccc1)c1ccc(N2CCN(C(=O)c3cc(Cl)ccc3Cl)CC2)nc1 [Compound X10]"
  Uom: "%"
  % Activity 1 μM: 3.4
- Compound: "O=C(NCCc1ccccc1)c1ccc(N2CCN(C(=O)c3cc(Cl)ccc3Cl)CC2)nc1 [Compound X12]"
  Uom: "%"
  % Activity 1 μM: 3.9
- Compound: "CC(C)CCNC(=O)c1ccc(N2CCN(C(=O)c3ccc(Cl)cc3Cl)CC2)nc1 [Compound X14]"
  Uom: "%"
  % Activity 1 μM: 7.4

###

# Assay Target: stearoyl-CoA desaturase (SCD) (Mus musculus, UniProt P13516)
# Construct: % Remaining SCD activity compared to DMSO control in mouse liver microsome assay; from tissue; host or cells: mouse liver microsomes
# Assay Details: SCD mouse liver microsome assay (tritiated stearoyl-CoA desaturation)
# Assay type: biochemical
# Test Context: 0.1 uM test compound; mouse liver microsomes 100 μg, 15 min RT preincubation, 15 min RT desaturation
Readout Name: % Remaining SCD activity compared to DMSO control, average (%)

- Cpd Smiles: "O=C(NCCc1cccc(Cl)c1)c1ccc(N2CCN(C(=O)c3ccccc3C(F)(F)F)CC2)nc1"
  Experimental Value: 57.77
- Cpd Smiles: "CCCCNC(=O)c1ccc(N2CCN(C(=O)c3ccccc3C(F)(F)F)CC2)nc1"
  Experimental Value: 63.58
- Cpd Smiles: "CC(C)CCNC(=O)c1ccc(N2CCN(C(=O)c3ccccc3C(F)(F)F)CC2)nc1"
  Experimental Value: 17.09
- Cpd Smiles: "CCCCCNC(=O)c1ccc(N2CCN(C(=O)c3cc(Cl)ccc3Cl)CC2)nc1"
  Experimental Value: 38.00
- Cpd Smiles: "CC(C)CCNC(=O)c1ccc(N2CCN(C(=O)c3ccccc3Br)CC2)nc1"
  Experimental Value: 25.68
- Cpd Smiles: "CC(C)CCNC(=O)c1ccc(N2CCN(C(=O)c3ccc(Cl)cc3Cl)CC2)nc1"
  Experimental Value: 38.24
- Cpd Smiles: "O=C(NCCCc1ccccc1)c1ccc(N2CCN(C(=O)c3ccccc3C(F)(F)F)CC2)nc1"
  Experimental Value: 26.04
- Cpd Smiles: "Cc1ccsc1C(=O)N1CCN(c2ccc(C(=O)NCCc3cccc(Cl)c3)cn2)CC1"
  Experimental Value: 86.33
